Listed here are molecules together with their documented viability.
# method description: reducers of endogenous Her2 protein level, primary screen, SKBR3 breast tumor cells, AlphaScreen, ATP viability (AID 461);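 further: percent of carrier control wells set as 100% viability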
# particulars: 18-24 h, measured here: SKBR3 viability, ATP luminescence, at 10 µM
test readout: viability (%)

                                    molecule  test_readout  unit_of_measure  measured_number
 0  CCOC(=O)c1c(NC(=O)c2cccs2)sc2c1CCN(C(=O)OCC)C2     viability                %              174
 1  CCCCC(c1nnnn1CS(=O)(=O)c1ccc(C)cc1)N1CCN(c2ccccc2)CC1 (configuration not stated)     viability                %              102
 2  COc1ccc(-c2cc3n(n2)CCc2nc4ccccc4n2-3)cc1     viability                %             95.5
 3  CCOC(=O)c1cnc(-n2nc(C)cc2C)nc1Nc1cccc(C(C)=O)c1     viability                %             87.5
 4  Cc1ccc(S(=O)(=O)N2CCC(C(=O)N[C@@H](Cc3ccccc3)C(=O)O)CC2)cc1     viability                %              104
 5  Cc1cc(C)n(CCCNC(=O)c2ccc3c(c2)NC(=O)CS3)n1     viability                %              104
 6                   CCC(=O)Nc1ccc(F)c(Cl)c1     viability                %              108
 7  CCc1nnc(NC(=O)CSc2nnc(CSc3nc(C)cc(C)n3)n2CC)s1     viability                %              100
 8           Oc1c(Cl)cc(Cl)cc1CNc1ccc(Br)cn1     viability                %              100
 9  COc1cccc(-n2ccnc2SCC(=O)N2CCc3ccccc32)c1     viability                %             94.5
10  COc1cccc(-c2csc3nnc(SCC(=O)c4ccc(NC(C)=O)cc4)n23)c1     viability                %              108
11    Cc1ccc(NC(=O)CCC(=O)OCC(F)(F)C(F)F)cc1     viability                %               98
